# Test system: PC-3
# test-summary: NCI tumour cell line growth inhibition, 48 h
Active and inactive are the calls of the source. Rule as the data show it: active = GI50 up to about 1.1 µM and inactive = higher.
Valid outcomes are listed here; reply with one: True (active), False (inactive)

Solved entries:
compound | measured-target | discrete-label
COc1cc2c(cc1OC)CCc1cc(OC)c(OC)cc1CC2 | PC-3 | False
O=C(CCNC(=O)OCc1ccccc1)OCCCNC(=O)OCc1ccccc1 | PC-3 | False
O=C1c2ccccc2-c2nnc3c(c21)-c1ccccc1C3 | PC-3 | False

Tell me the assay call for CCCC(=O)Nc1cc(/C=C/C(=O)N2C[C@@H]3C[C@]34C2=CC(=O)c2[nH]cc(C)c24)n(C)c1 please.
True

One more compound: CCOC(=O)C1(C#N)C(=O)c2cc[n+](CC[n+]3ccc4c(c3)C(=O)C(C#N)(C(=O)OCC)C4=O)cc2C1=O (stereo not given)
False

* * *

# key: entry, value: GI50
# Tested on: OVCAR-3
# test-summary: NCI tumour cell line growth inhibition, 48 h
The source made the active and inactive calls. No stated cut-off is given here; in the data, active = GI50 up to about 1.1 µM and inactive = higher.

Please review the entries below; each comes with its answer.
compound | GI50
N#CCCN(c1ccc(/C=C2\N=C(c3ccc(Cl)cc3)OC2=O)cc1)S(=O)(=O)c1ccccc1 | > 100 µM (inactive)
O=Cc1ccccc1CCn1c(=O)c2cc3c(=O)n(CCc4ccccc4C=O)c(=O)c3cc2c1=O | > 100 µM (inactive)
c1ccc2c(Cc3[nH]c4ccccc4c3Cc3c[nH]c4ccccc34)c[nH]c2c1 | 3.16 µM (inactive)
CN(C)CCC(/C=C/c1ccccc1)=N\Nc1ccc(Cl)c(Cl)c1 | 4.27 µM (inactive)
COc1cc2cccc(/N=C\c3ccccc3Cl)c2cc1OC | > 100 µM (inactive)
O=c1[nH]nc(-c2ccccc2)n1/N=C/c1ccccc1O | 59.4 µM (inactive)

Reported GI50 for COC(=O)c1cc(CC2Cc3cc4c(cc3C2=O)CCC4)cc2c1CCC2 (stereo not given) : what is it?
> 100 µM (inactive)

One more compound: O=C1/C(=C/c2ccc(Cl)cc2)CSC/C1=C\c1ccc(Cl)cc1
2.93 µM (inactive)

One more compound: CCNC(=O)O/N=C1\CCC2[C@@H]3CC=C4C[C@@H](OC5CCCCO5)CC[C@]4(C)C3CC[C@]12C (stereo not given in full)
2.59 µM (inactive)

One more compound: CNC(=O)C1(C#N)C(c2ccccc2)C(C#N)(C(=O)NC)C1c1ccccc1 (stereo not given)
> 100 µM (inactive)

* * *

# Tested on: HCC 2998
# test-summary: NCI tumour cell line growth inhibition, 48 h
The source made the active and inactive calls. Rule as the data show it: active = GI50 up to about 1.1 µM and inactive = higher.
# key: entry, value: GI50

Please review the entries below; each comes with its answer.
compound | GI50
COc1ccc(NC(=O)CC2S/C(=N\c3ccccc3C)NC2=O)c([N+](=O)[O-])c1 (centres undefined) | > 100 µM (inactive)
N#Cc1nc(C2OC(COC(=O)c3ccccc3)C(OC(=O)c3ccccc3)C2OC(=O)c2ccccc2)oc1N (centres undefined) | 35.6 µM (inactive)
Cc1occ2c1C(=O)CC1C2[C@@H](O)CC2C(C)(C)CCC[C@]12C (some centres undefined) | > 100 µM (inactive)
O=C(/C=C/c1ccc(Cl)cc1)c1ccncc1 | 40.4 µM (inactive)
C[N+](C)([O-])Cc1cccc(NC(=O)c2ccc(C(=O)Nc3cccc(C[N+](C)(C)[O-])c3)cc2)c1 | > 100 µM (inactive)
CCOC1OC(=O)c2cc3ccc4c(c3c(-c3ccc5c(c3)OCO5)c21)OCO4 (centres undefined) | 2.26 µM (inactive)

Reported GI50 for CC(=O)Oc1ccc(/C=C/C(=O)NCC(NC(=O)/C=C/c2ccc(OC(C)=O)c(OC(C)=O)c2)C(=O)O)cc1OC(C)=O (centres undefined) : what is it?
> 100 µM (inactive)

One more compound: O=C(Cc1nc2ccccc2s1)C(=O)Nc1ccc(Cl)cc1
> 100 µM (inactive)

One more compound: COc1ccc(/C=C/c2cc(OC)c(OC(C)=O)c(OC)c2)cc1
20.7 µM (inactive)
